- Test system: HSSY-II tumor spheroid viability
- experiment: Anticancer human tumor HSSY-II cell line growth inhibition;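 note: spheroids exposed to compounds for seven days before reading; percent of DMSO vehicle control viability so 100% = untreated level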
- conditionDescription: second compound 1 µM; first compound 3.16 µM; active compounds read low; spheroids with HUVEC and MSC
metricName: viability, T/C

>>> value("CC1COCCN1c1cc(-c2ccnn2C)c2ccnc(-c3ccn[nH]3)c2n1 (stereo unspecified) + Cn1nnc2c(C(N)=O)ncn2c1=O")
"1.78%"
>>> value("Cc1cc(C)c(CNC(=O)c2cc(-c3ccc(CN4CCOCC4)cc3)cc3c2cnn3C2CCCC2)c(=O)[nH]1 + Cn1nnc2c(C(N)=O)ncn2c1=O")
"91.4%"
>>> value("COc1ccc([C@@H](O)c2cc(-c3ncnc4cc(N5CCOCC5)ccc34)c(F)cc2Cl)nn1 + Cn1nnc2c(C(N)=O)ncn2c1=O")
"44%"
>>> value("[2H]c1nc(C)nc([2H])c1-c1cc(NC[C@@H](C)c2cccc3c(C(=O)NC)ccnc23)ncn1 + Cn1nnc2c(C(N)=O)ncn2c1=O")
"93.8%"
>>> value("COc1cc(C)[nH]c(=O)c1CN1CCc2c(Cl)cc(C(OC)C3COC3)c(Cl)c2C1=O (stereo unspecified) + Cn1nnc2c(C(N)=O)ncn2c1=O")
"63.2%"
>>> value("CC(C)n1c(=O)n(C)c2cnc3cc(F)c(-c4ccc(OCCCN5CCCCC5)nc4)cc3c21 + Cn1nnc2c(C(N)=O)ncn2c1=O")
"72.7%"

----------
# viability, T/C annotations
- System: HSSY-II tumor spheroid viability
- experiment: Anticancer human tumor HSSY-II cell line growth inhibition;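 note: spheroids exposed to compounds for seven days before reading; percent of DMSO vehicle control viability so 100% = untreated level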
- conditionDescription: second compound 0.00949 µM; first compound 0.1 µM; active compounds read low; spheroids with HUVEC and MSC
metricName: viability, T/C (%)

>>> value("CC(C)n1c(=O)n(C)c2cnc3cc(F)c(-c4ccc(OCCCN5CCCCC5)nc4)cc3c21 + CC[C@@]1(O)C(=O)OCc2c1cc1n(c2=O)Cc2cc3c(CN(C)C)c(O)ccc3nc2-1")
14.7
>>> value("CC1COCCN1c1cc(-c2ccnn2C)c2ccnc(-c3ccn[nH]3)c2n1 (stereo unspecified) + CC[C@@]1(O)C(=O)OCc2c1cc1n(c2=O)Cc2cc3c(CN(C)C)c(O)ccc3nc2-1")
3.49
>>> value("COc1ccc([C@@H](O)c2cc(-c3ncnc4cc(N5CCOCC5)ccc34)c(F)cc2Cl)nn1 + CC[C@@]1(O)C(=O)OCc2c1cc1n(c2=O)Cc2cc3c(CN(C)C)c(O)ccc3nc2-1")
65.5
>>> value("COc1cc(C)[nH]c(=O)c1CN1CCc2c(Cl)cc(C(OC)C3COC3)c(Cl)c2C1=O (stereo unspecified) + CC[C@@]1(O)C(=O)OCc2c1cc1n(c2=O)Cc2cc3c(CN(C)C)c(O)ccc3nc2-1")
59.4
>>> value("[2H]c1nc(C)nc([2H])c1-c1cc(NC[C@@H](C)c2cccc3c(C(=O)NC)ccnc23)ncn1 + CC[C@@]1(O)C(=O)OCc2c1cc1n(c2=O)Cc2cc3c(CN(C)C)c(O)ccc3nc2-1")
64.5
>>> value("Cc1cc(C)c(CNC(=O)c2cc(-c3ccc(CN4CCOCC4)cc3)cc3c2cnn3C2CCCC2)c(=O)[nH]1 + CC[C@@]1(O)C(=O)OCc2c1cc1n(c2=O)Cc2cc3c(CN(C)C)c(O)ccc3nc2-1")
40.1
